// data source = PubChem BioAssay

- Experiment: growth suppression of yeast trafficking mutant, preliminary HTS, modulators of trafficking downstream of Golgi apparatus project, 1536-format plate, OD 615 nm (AID 637); also: test concentration not given here
- Measurement Parameters: yeast transport mutant growth, absorbance 615 nm, 18 h; active compounds read high
Measurement Type: inhibition (%)
Give your result in % as a bare value.

Before answering, review these 6 worked examples.
{"columns": ["Molecule", "Measurement Type", "Result Value"],
 "data": [
  ["N#CC1=C(SCC(=O)NC23CC4CC(CC(C4)C2)C3)NC(=O)C(C#N)C12CCCCC2 (stereo not drawn)", "inhibition", -5.4],
  ["CC(=O)c1c(OCC(=O)O)ccc2c(C)cc(=O)oc12", "inhibition", 6.07],
  ["COc1ccccc1C(=O)NCC(c1cccnc1)N(C)C (stereo not drawn)", "inhibition", -1.27],
  ["CCOC(=O)CCNC(=O)Nc1ccc2nc(C)n(Cc3ccccc3Cl)c(=O)c2c1", "inhibition", 1.67],
  ["COc1ccc(Br)cc1C1N2CC3(C)CN1CC(C)(C2)C3=O (stereo not drawn)", "inhibition", -3.61],
  ["Cc1ccccc1OCCn1c(=O)oc2ccccc21", "inhibition", 2.38]
]}

# get_value(readout='inhibition', item= CN/C(=C/[N+](=O)[O-])NCCSCc1ccc(CN(C)C)o1 ) 4

# get_value(readout='inhibition', item= Cc1c(Cl)cccc1Nc1ccccc1C(=O)O ) 5.33

# get_value(readout='inhibition', item= O=C(NCc1ccccn1)c1cc(-n2cnnc2)ccc1Cl ) 2.79

# get_value(readout='inhibition', item= N#Cc1c(SCC(=O)N2CCOCC2)nsc1SCC(=O)N1CCOCC1 ) -3.02

# get_value(readout='inhibition', item= COc1cc2c(cc1NC(=O)CSc1nnc(Cc3cccs3)n1C)oc1ccccc12 ) 4.36

# get_value(readout='inhibition', item= CC(=N\O)/C(CN(C)C)=N/O ) 25.6

# get_value(readout='inhibition', item= O=C(CSc1nc2ccccc2[nH]1)c1ccc2c(c1)OCO2 ) -5.16

# get_value(readout='inhibition', item= CCOC(=O)C1CCN(c2c(NC3CCCCCCC3)c(=O)c2=O)CC1 ) 0.5
